Molecular target: T1, recombinant human CTGF‐His tag (connective tissue growth factor) (human), P29279
T1 chain: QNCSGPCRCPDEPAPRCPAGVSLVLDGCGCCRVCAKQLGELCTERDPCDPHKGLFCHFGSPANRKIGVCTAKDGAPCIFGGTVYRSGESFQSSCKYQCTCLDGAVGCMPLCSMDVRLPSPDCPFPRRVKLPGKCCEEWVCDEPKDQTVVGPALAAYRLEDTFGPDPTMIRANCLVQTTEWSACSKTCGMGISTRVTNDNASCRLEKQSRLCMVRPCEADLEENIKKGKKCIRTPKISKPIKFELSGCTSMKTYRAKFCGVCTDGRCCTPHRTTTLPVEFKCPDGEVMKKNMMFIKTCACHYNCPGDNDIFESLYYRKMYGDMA
Assay: MST; proteins labeled with Monolith RED-NHS; 2 × 10^-6 M protein (10 µL) mixed with variable concentrations of peptide in PBST (10 µL, PBS with 0.05% Tween-20); Monolith NT.115
OBSERVATION_TYPE: Kd (nM)

> print(dat)
                                     binder  readout.value
1  CPSAAHYL (modifications not checked) [CL8 peptide]           1230

Numbers sourced from paper PMC12199414.
